# test-protocol: inhibitors of triacylglycerol accumulation, primary screen, cell-based, uHTS, fluorescence, H9c2 (AID 651582)
# details: H9c2 cells, Nile Red lipid (TAG) fluorescence, at 12.5 µM, cells loaded with 200 µM oleic acid
About 1,500 (0.65%) of roughly 230,000 compounds were called active.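 The calls were made as follows: active = pattern-corrected inhibition of lipid staining of at least 50% with the nuclear-stain viability signal not falling by more than 50%; inactive = the rest, inconclusive results apart.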 What follows is part of a selection rich in actives, with near analogues and random picks from the rest.
Outcomes: yes = active, no = inactive

molecule | cat
Brc1ccc(CN2CC[C@H]3C=CCc4cccc(c43)C2)cc1 | no
COc1ccc(NC(=O)CNc2cc(S(=O)(=O)N3CCOCC3)ccc2N2CCOCC2)c(OC)c1 | no
Oc1cccc2cc(-c3ccncc3)cnc12 | yes
CCOC(=O)C1CCCN(C(=O)c2ccc(C)c(S(=O)(=O)N3CCCCC3)c2)C1 (stereo not given) | no
CCOC(=O)C1(C)CCCN(C(=O)c2cccc(Cl)c2)C1 (stereo not given) | no

----------
The following compounds are shown together with reported DAPI nuclei signal change (viability), lower = more cytotoxic values.
# test-protocol: inhibitors of triacylglycerol accumulation, primary screen, cell-based, uHTS, fluorescence, H9c2 (AID 651582)
# details: H9c2 cells, Nile Red lipid (TAG) fluorescence, at 12.5 µM, cells loaded with 200 µM oleic acid; measured here: DAPI nuclei count viability
Out of some 230,000 compounds screened, about 1,500 (0.65%) were called active. What follows is part of a selection rich in actives, with near analogues and random picks from the rest.
assay-readout: DAPI nuclei signal change (viability), lower = more cytotoxic (%)

compound | output-unit | reported-result
COc1cc(NC(=O)c2cc(-c3ccc(F)cc3OC(C)C)n[nH]2)cc(OC)c1OC | % | -6.58
CN1CCN(c2ccc(NC(=O)COc3ccc(Cl)cc3Cl)cc2)CC1 | % | 3.32
CC1(C)CC(=O)C=C(c2ccccc2CO)C1=O | % | -1.17
COc1ccc(Cc2nnc(N/N=C/c3ccccc3O)[nH]c2=O)cc1OC | % | -27
CNc1cncc(-c2ccc(NS(C)(=O)=O)cc2)n1 | % | -24.4
O=C(NCCN1CCOCC1)c1ccc2c(c1)ncn2C1CCCC1 | % | 1.89
CCOc1ccc(CN2CCN(Cc3ccc4cc(F)ccc4n3)CC2CCO)cc1 (configuration not stated) | % | 1.54
CC(=O)Nc1ccc(C(=O)Nc2cc(S(=O)(=O)N3CCOCC3)ccc2N2CCOCC2)cc1 | % | 4.58
COc1cc(C(O)c2nc(-c3cnn(C)c3)cs2)ccc1F (configuration not stated) | % | -5.42
O=C(Nc1cc(Cl)ccc1N1CCOCC1)c1ccc(N2CCCC2=O)cc1 | % | -2.51
O=C(CN1C(=O)NC2(CCCCCC2)C1=O)NCc1ccc(F)cc1 | % | 0.843
COc1ccc(OCCNC(=O)c2cc(C3CC3)nc3c2cnn3C(C)C)cc1 | % | -4.88

----------
Here the recorded inhibition is given for each entry.
# test-protocol: inhibitors of triacylglycerol accumulation, primary screen, cell-based, uHTS, fluorescence, H9c2 (AID 651582);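 as to inhibition: 0% = DMSO wells and 100% = triacsin C control wells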
# details: H9c2 cells, Nile Red lipid (TAG) fluorescence, at 12.5 µM, cells loaded with 200 µM oleic acid; stronger effect = higher value
Out of some 230,000 compounds screened, about 1,500 (0.65%) were called active. Many of the other results were omitted from the sample, so actives are more common in it than they were.

structure-smiles-string | inhibition
COc1ccccc1Nc1nc(N)nc(CN(C)C2CCCCC2)n1 | -18.7% (inactive)
COc1cccc(NC(=O)c2cc(S(=O)(=O)N3CCc4ccccc43)cn2C)c1 | -1.15% (inactive)
Cc1nc2ccc(C(=O)O)cc2[nH]1 | -10.7% (inactive)

----------
# test-protocol: inhibitors of triacylglycerol accumulation, primary screen, cell-based, uHTS, fluorescence, H9c2 (AID 651582)
# details: H9c2 cells, Nile Red lipid (TAG) fluorescence, at 12.5 µM, cells loaded with 200 µM oleic acid; measured here: DAPI nuclei count viability
The whole screen tested about 230,000 compounds, of which about 1,500 (0.65%) were called active. The sample as a whole holds a higher share of actives than the screen did.
assay-readout: DAPI nuclei signal change (viability), lower = more cytotoxic

molecule | reported-result
CCOCCC(=O)Nc1ccc2c(c1)c(=O)n(C)n2-c1ccc2ccccc2c1 | -27.1%
CCOC(=O)C1(C)CCCN(C(=O)c2ccc(N(C)C)cc2)C1 (stereo unspecified) | 5.71%
O=C(CCN1CCN(C/C=C/c2ccccc2)CC1)Nc1cccc(F)c1 | 11.8%
C=CCNC(=S)N/N=C/c1ccc(OCc2ccccc2)cc1 | 1.44%
O=C1c2ccccc2C(=O)c2c1cccc2N1CCN(C/C=C/c2ccccc2)CC1 | 3.54%
CCc1nc2ccc(C(=O)Nc3cccc(OC)c3)cn2c1N(CCC(C)C)CCN(C)C | 0.0295%
Cc1[nH]c2ccccc2c1C(=O)C(=O)NCc1nnnn1-c1cccc(F)c1 | 9.45%
O=c1cc(N2CCN(Cc3ccccc3)CC2)c(-c2ccccc2)n[nH]1 | -7.21%
CN1CCC(N(C)S(=O)(=O)c2ccc(NC(=O)c3cccc(C#N)c3)cc2)CC1 | -3.7%
COc1ccc(OC)c(NC(=O)C2CCCN2S(=O)(=O)c2ccc3c(c2)CC(C)N3C(C)=O)c1 (stereo unspecified) | -10.6%
CC1O[C@@H](OC2C(O)C(C)O[C@H](OC(=O)[C@]34CCC(C)(C)C[C@H]3C3=CCC5[C@@]6(C)CC(O)C(O[C@@H]7OC(CO)C(O)[C@@H](O)[C@@H]7O)[C@@](C)(C(=O)O)C6CC[C@@]5(C)[C@]3(CO)CC4)C2O[C@H]2OC(C)[C@@H](O[C@@H]3OCC(O[C@@H]4OC(CO)C(O)[C@H](O)C4O)[C@@H](O)[C@@H]3O)[C@H](O)C2O)C(O)C(O)C1O (stereo partly specified) | -3.05%
